system: Macrophage colony-stimulating factor 1 receptor (Homo sapiens)
Sequence (P07333 whole entry, the tested form may be a part): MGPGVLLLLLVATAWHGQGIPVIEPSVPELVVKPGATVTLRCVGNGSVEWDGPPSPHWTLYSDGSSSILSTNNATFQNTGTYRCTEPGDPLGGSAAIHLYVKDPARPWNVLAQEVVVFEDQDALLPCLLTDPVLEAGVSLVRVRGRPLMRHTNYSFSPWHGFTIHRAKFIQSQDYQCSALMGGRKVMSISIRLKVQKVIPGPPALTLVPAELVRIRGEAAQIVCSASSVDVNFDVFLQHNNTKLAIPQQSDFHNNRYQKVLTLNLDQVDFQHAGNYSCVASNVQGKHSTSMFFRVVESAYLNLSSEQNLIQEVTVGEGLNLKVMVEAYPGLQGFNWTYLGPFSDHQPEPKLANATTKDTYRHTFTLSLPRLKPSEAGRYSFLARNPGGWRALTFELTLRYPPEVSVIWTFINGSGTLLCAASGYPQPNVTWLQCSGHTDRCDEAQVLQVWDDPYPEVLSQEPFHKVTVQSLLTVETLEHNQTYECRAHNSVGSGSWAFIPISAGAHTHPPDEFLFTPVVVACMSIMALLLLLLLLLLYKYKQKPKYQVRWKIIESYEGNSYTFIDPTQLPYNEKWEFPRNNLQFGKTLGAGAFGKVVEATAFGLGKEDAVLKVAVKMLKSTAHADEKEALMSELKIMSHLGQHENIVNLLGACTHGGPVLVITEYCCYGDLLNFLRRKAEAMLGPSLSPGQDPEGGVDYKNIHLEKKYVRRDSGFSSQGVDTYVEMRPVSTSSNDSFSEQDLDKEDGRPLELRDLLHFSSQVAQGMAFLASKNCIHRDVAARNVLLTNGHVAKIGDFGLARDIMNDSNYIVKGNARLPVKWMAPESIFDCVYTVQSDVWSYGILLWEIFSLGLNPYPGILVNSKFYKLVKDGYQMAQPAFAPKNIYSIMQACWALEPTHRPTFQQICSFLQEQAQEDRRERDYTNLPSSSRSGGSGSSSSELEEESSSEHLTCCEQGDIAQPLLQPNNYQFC
assay_explanation: Displacement of kinase tracer 236 from recombinant human His-tagged CSF1R cytoplasmic domain (538 to 910 residues) expressed in baculovirus-infected insect cells measured after 5 hrs by TR-FRET based LanthaScreen assay
pIC50: −log10 of the molar value.
For each entry below, report its pIC50 value.

Record excerpt, results attached:
Nc1ncnc2c3c(n(-c4ccc(NC(=O)CN5CCCC5)cc4)c12)CCC3	< 6.70
COc1cc(-n2c3c(c4ncnc(N)c42)CCC3)ccc1CC(=O)Nc1cc(C)ccc1F	> 8.00
COc1ccc(CC(=O)Nc2ccc(-n3c4c(c5ncnc(N)c53)CCC4)cc2)cc1Br	> 8.00
COc1ccc(CC(=O)Nc2ccc(-n3c4c(c5ncnc(N)c53)CCC4)cc2)cn1	> 8.00
COc1cc(-n2c3c(c4ncnc(N)c42)CCC3)ccc1CC(=O)Nc1ccc(OC(F)(F)F)cc1	> 8.00

Give one value of pIC50 per listed compound.
1. COc1ccc(NC(=O)Cc2ccc(-n3c4c(c5ncnc(N)c53)COC4)cc2)cc1C(F)(F)F
2. Nc1ncnc2c3c(n(-c4ccc(CC(=O)Nc5nc(C(F)(F)F)co5)cc4)c12)CCC3
3. COc1ccc(NC(=O)Cc2ccc(-n3c4c(c5ncnc(N)c53)CCC4)cc2)c(F)c1
4. Nc1ncnc2c3c(n(-c4ccc(NC(=O)Cc5ccn(C(F)F)n5)cc4)c12)CCC3

1. > 8.00
2. 6.70 to 8.00
3. 6.70 to 8.00
4. 6.70 to 8.00
